- method.notes: qHTS assay for small molecule agonists of the antioxidant response element (ARE) signaling pathway (AID 651741); as to activation: % of control where 0% means no effect
- conditions: HepG2 ARE-bla reporter, beta-lactamase FRET ratio, 16 h; series mostly up to 96 µM
Inconclusive results are not listed. Active and inactive are the calls of the source. Calls follow the shape of the dose curve; as a rule, active = well fitted activation curve with a large enough effect in the signal ratio; inconclusive = small, poorly fitted or top-dose-only effect, or effect the other way, or a change in a side signal; inactive = flat fitted curve, though single readings scatter; the % refers to the signal ratio.
Hello, when you answer, please use one of the following outcomes: true = active, false = inactive

Problem: # outcome recorded in this test, key = C=CC(C)(CCC=C(C)C)OC(C)=O (centres undefined)
Solution: false

Problem: I would be grateful if you could indicate the recorded call for S=C1NC=NC2N=CNC12 (centres undefined) .
Solution: true

Problem: Fill in: this test's call for CC12CCC(CC1=O)C2(C)C (centres undefined) is ___
Solution: false

Problem: Given O=C(/C=C/c1ccc(O)c(O)c1)O[C@@H](C(=O)O)[C@@H](OC(=O)/C=C/c1ccc(O)c(O)c1)C(=O)O , state the outcome it received in this test.
Solution: false

Problem: Hi, do you know how CN(C)CCCCCCN(C)C came out in this test?
Solution: false

***
Problem: # fetch the recorded call for Clc1cc(Cl)c(Cl)c(Cl)c1Cl here
Solution: false

Problem: What outcome does the record of this test show for Clc1cc(Cl)c(Cl)cc1Cl ?
Solution: false

Problem: # fetch the recorded call for CCCCCCCCCCCC(=O)O here
Solution: false

Problem: Any idea what this test logged for O=C(O)c1ccccc1 ?
Solution: false

====

- tested.system: Rap guanine nucleotide exchange factor 3 (Homo sapiens)
- method.notes: Counterscreen qHTS for agonist of cAMP-regulated guanine nucleotide exchange factor 3 (EPAC1) (AID 1645889); also: % of control where 0% means no effect; nearly all actives have a fitted effect of over 40% in size
- conditions: EPAC1 Rap1B-BODIPY-GDP exchange, fluorescence; series mostly up to 154 µM
- From the text: Assay Provider (PI): Xiaodong Cheng Ph.D. The University of Texas Medical Branch, […], TX MLPCN Grant: NS066510 In multi-cellular eukaryotic organisms, the effects of cAMP are transduced by two ubiquitously-expressed intracellular cAMP receptors, the classic protein kinase A/cAMP-dependent protein kinase (PKA/cAPK) and the more recently discovered exchange protein directly activated by cAMP/cAMP-regulated guanine nucleotide exchange factor (EPAC/cAMP-GEF). […]
Records with an inconclusive call do not appear. Calls of active or inactive are those of the source. Calls follow the shape of the dose curve; as a rule, active = well fitted activation curve with a large enough effect; inconclusive = small, poorly fitted or top-dose-only effect, or another doubt; inactive = no such curve, though single readings can be large or run the other way.
attribute.measured: activation

Problem: # return activation for COc1ccccc1Cc1c(-c2ccco2)nc2c(C)cc(Br)cn12 , test system: Rap guanine nucleotide exchange factor 3 (Homo sapiens)
Solution: 13.2% [at 30.8 µM] (inactive)

Problem: Please tell me the measured activation for Cc1cc(Br)c2c(c1)[C@](O)(c1cn(C)c3ccccc13)C(=O)N2C ; system: Rap guanine nucleotide exchange factor 3 (Homo sapiens).
Solution: 24.7% [at 30.8 µM] (inactive)

Problem: Provide activation, recorded with Rap guanine nucleotide exchange factor 3 (Homo sapiens), of O=C(CCC1N=C2c3ccccc3N=C(SCc3ccc(Cl)cc3)N2C1=O)NCc1cccs1 (stereo not given)
Solution: inactive

Problem: System Rap guanine nucleotide exchange factor 3 (Homo sapiens). Read-out activation. Item COc1ccccc1NC(=O)Cc1ccc(-c2ccccc2)cc1 . Report value.
Solution: inactive

Problem: Please indicate recorded activation of Cc1cc(-c2nn(-c3ccccc3F)cc2CN2CCCC(O)C2)c(C)s1 (stereo not given) measured with Rap guanine nucleotide exchange factor 3 (Homo sapiens).
Solution: 23.9% [at 30.8 µM] (inactive)

Continuing:
Problem: Send back Rap guanine nucleotide exchange factor 3 (Homo sapiens) activation of CCOC(=O)C1=C(C)OC(N)=C(C#N)C1c1cc2c(cc1Br)OCO2 (stereo not given) only.
Solution: 11% [at 30.8 µM] (inactive)

Problem: Provide the reported activation (system: Rap guanine nucleotide exchange factor 3 (Homo sapiens)) for CC(=O)NC(c1ccc(Cl)cc1Cl)c1ccc2cccnc2c1O (stereo not given)
Solution: inactive

Problem: Name the value of activation reported for CC(C)c1cccc(-c2ccc3c(c2)S(=O)(=O)c2cccc(C(=O)O)c2C3=O)c1 when tested on Rap guanine nucleotide exchange factor 3 (Homo sapiens).
Solution: inactive

Problem: Look up and report activation, with Rap guanine nucleotide exchange factor 3 (Homo sapiens) as system, for O=C(c1ccc2c(c1)CCCC2)N1CCN(c2nc3ccc(F)cc3s2)CC1
Solution: inactive

Problem: Retrieve activation on Rap guanine nucleotide exchange factor 3 (Homo sapiens); query COc1ccc(C2CC(c3ccccc3OC(C)=O)=NN2C(C)=O)cc1 (stereo not given)
Solution: inactive

====

- method.notes: qHTS assay for small molecule disruptors of the mitochondrial membrane potential - 5 hr assay (AID 651755); also: nearly all actives have a fitted effect of over 40% in size
- conditions: JC-1-type ratio dye; series mostly up to 92.2 µM
Inconclusive results are not listed. The source made the active and inactive calls. Calls come from the whole dose curve.
Please state which outcome applies, choosing from 1 (yes) (active), 0 (no) (inactive)

Problem: So what was the verdict on Cc1ccccc1C in this test?
Solution: 0 (no)

Problem: Answer briefly: the call reported for O=C(O)c1ccccc1 in this assay.
Solution: 0 (no)

Problem: Test call for this molecule, please: O=C1CCc2ccccc2O1
Solution: 0 (no)

Problem: Any idea what this test logged for CC1(C)CC(N=C=O)CC(C)(CN=C=O)C1 (centres undefined) ?
Solution: 0 (no)

Problem: Entry O=C1c2ccccc2C(=O)C1c1ccc2ccccc2n1 : call = ?
Solution: 1 (yes)

New cases:
Problem: So what was the verdict on C=CCOC(=O)c1ccccc1C(=O)OCC=C in this test?
Solution: 0 (no)

Problem: What outcome does the record of this test show for CCCN(CCC)C(=O)SCC ?
Solution: 0 (no)

Problem: Assay result, entry C=CC(=O)OCCOCCOCCOCCOC(=O)C=C — outcome?
Solution: 0 (no)

Problem: Fill in: this test's call for O=C(/C=C/c1ccc(O)c(O)c1)O[C@@H](C(=O)O)[C@@H](OC(=O)/C=C/c1ccc(O)c(O)c1)C(=O)O is ___
Solution: 0 (no)

Problem: Please let me know the test result on file for COc1ccc2nc(N)sc2c1 .
Solution: 0 (no)

Problem: Name the outcome recorded for CC12CCC(CC1=O)C2(C)C (centres undefined) in the assay.
Solution: 0 (no)

====

- Tested on: PC49
- method.notes: qHTS profiling for inhibitors of Plasmodium falciparum proliferation (AID 504749);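 also: 0% = DMSO vehicle and full inhibition = artemisinin control; nearly all actives have a fitted effect of over 60% in size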
- conditions: P. falciparum in erythrocytes, SYBR Green DNA, 72 h; series mostly up to 28.7 µM
- Method: NIH National Institute of Allergy and Infectious Diseases [NIAID] NIH Chemical Genomics Center [NCGC] […] Because mature erythrocytes lack DNA, only Plasmodium-derived DNA is detected. NCGC Assay Protocol Summary: The SYBR Green viability assay was adapted from a method described previously (Plouffe et al., 2008). […] The following morning, fluorescence intensity at 485(14) nm excitation and 535(25) nm emission wavelengths was measured on an EnVision (Perkin Elmer) plate reader. […]
Inconclusive results are not listed. Activity calls are given as the source filed them. Calls follow the shape of the dose curve; as a rule, active = well fitted inhibition curve with a large enough effect; inconclusive = small, poorly fitted or top-dose-only effect; inactive = flat fitted curve, though single readings scatter.
attribute.measured: outcome

Problem: Lab note: record outcome of C=C[C@]1(C)C[C@@H](OC(=O)CSCCN(CC)CC)[C@]2(C)C(C)CC[C@]3(CCC(=O)[C@H]32)[C@@H](C)[C@@H]1O (stereo partly drawn) tested on PC49.
Solution: inactive

Problem: Supply outcome measured with PC49 for CO[C@@H]1[C@@H](OC2OC(C)C(OC3CC(C)(O)C(OC(=O)CC(C)C)C(C)O3)C(N(C)C)C2O)[C@@H](CC=O)C[C@@H](C)C(=O)/C=C\C2O[C@H]2C[C@@H](C)OC(=O)C[C@H]1OC(C)=O (stereo partly drawn) .
Solution: inactive

Problem: # lookup: PC49 outcome, key = CCC(=O)O[C@@H](OP(=O)(CCCCc1ccccc1)CC(=O)N1C[C@H](C2CCCCC2)C[C@H]1C(=O)O)C(C)C (stereo partly drawn)
Solution: inactive

====

- tested.system: Rap guanine nucleotide exchange factor 3 (Homo sapiens) (UniProt O95398)
- Sequence (O95398 whole entry, looked up): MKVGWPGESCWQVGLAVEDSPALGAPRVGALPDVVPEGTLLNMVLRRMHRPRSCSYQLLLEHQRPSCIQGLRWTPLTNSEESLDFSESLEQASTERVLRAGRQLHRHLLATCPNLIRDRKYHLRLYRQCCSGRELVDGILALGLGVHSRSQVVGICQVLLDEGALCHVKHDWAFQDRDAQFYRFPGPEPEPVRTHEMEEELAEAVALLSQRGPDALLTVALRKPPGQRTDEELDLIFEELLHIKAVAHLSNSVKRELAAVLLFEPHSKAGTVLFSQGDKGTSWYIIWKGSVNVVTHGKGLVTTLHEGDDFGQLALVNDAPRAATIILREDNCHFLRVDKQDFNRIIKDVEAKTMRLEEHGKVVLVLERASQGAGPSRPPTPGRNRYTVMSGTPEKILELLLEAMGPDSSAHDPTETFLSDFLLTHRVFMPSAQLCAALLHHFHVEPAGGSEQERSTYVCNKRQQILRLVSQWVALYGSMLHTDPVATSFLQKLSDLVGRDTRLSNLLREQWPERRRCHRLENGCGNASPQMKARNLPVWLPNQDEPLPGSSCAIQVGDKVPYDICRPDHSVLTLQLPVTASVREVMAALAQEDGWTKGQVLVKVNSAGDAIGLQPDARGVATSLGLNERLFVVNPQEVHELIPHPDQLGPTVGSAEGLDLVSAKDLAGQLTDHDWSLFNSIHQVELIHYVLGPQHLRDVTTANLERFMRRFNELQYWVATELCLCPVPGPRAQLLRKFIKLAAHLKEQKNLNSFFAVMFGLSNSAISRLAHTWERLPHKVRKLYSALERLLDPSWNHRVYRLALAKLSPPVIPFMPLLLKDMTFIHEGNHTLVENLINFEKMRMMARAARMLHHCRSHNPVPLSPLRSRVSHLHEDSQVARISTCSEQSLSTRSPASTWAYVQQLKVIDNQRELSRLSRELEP
- method.notes: Counterscreen qHTS for antagonist of cAMP-regulated guanine nucleotide exchange factor 3 (EPAC1) (AID 1645888);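 also: fluorescence loss as bound BODIPY-GDP is released from Rap1B; % of control where 0% means no effect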
- conditions: Rap1B-BODIPY-GDP nucleotide exchange, fluorescence; series mostly up to 154 µM
Results filed as inconclusive are left out. Activity calls are given as the source filed them. Calls follow the shape of the dose curve; as a rule, active = well fitted inhibition curve with a large enough effect; inconclusive = small, poorly fitted or top-dose-only effect; inactive = no such curve, though single readings can be large or run the other way.
attribute.measured: activity change, negative = inhibition

Problem: # return recorded activity change, negative = inhibition for entry COc1ccc(-c2cc3c(c4c2ccn4C)C2CCC3O2)cc1OC (stereo unspecified)
Solution: 9.79% [at 30.8 µM] (inactive)

Problem: Read off the recorded activity change, negative = inhibition for CCC(C)(C)c1ccc(Oc2ccc(N)cc2)cc1
Solution: inactive

Problem: Return reported activity change, negative = inhibition. Input compound: COC(=O)CC(NC(=S)NC(=O)c1ccccc1)c1ccc(Br)cc1 (stereo unspecified)
Solution: inactive

Problem: Read off the recorded activity change, negative = inhibition for O=C1C=C(c2ccccc2Oc2ccccc2)C[C@@H](c2ccc(F)cc2)C1
Solution: inactive

Problem: // Input: COc1ccc(-c2ncccc2OC(=O)C23CC4CC(CC(C4)C2)C3)cc1OC . Output its activity change, negative = inhibition only.
Solution: -6.96% [at 30.8 µM] (inactive)

Others:
Problem: Name the recorded activity change, negative = inhibition of the compound listed here: COC(=O)c1ccc2nc(-c3ccccc3)c(Cc3ccccc3C(F)(F)F)n2c1
Solution: inactive
